System: 616215-338-R-J1-PDC complex spheroids, viability % test/control;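 further: spheroids exposed to agents for 7 days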
Assay: Anticancer human tumor 616215-338-R-J1-PDC patient-derived colon adenocarcinoma cell line growth inhibition [CLK]; active means viability on the fitted dose curve at most 10% of control; inactive means the rest
Conditions: second compound 1 µM; first compound 0.316 µM
Labels: active, inactive

INSERT INTO measurements (compound, assay_system, class) VALUES
  ('CC(Nc1ccc2c(c1)OCCn1cc(N3C(=O)OCC3C(F)F)nc1-2)C(N)=O (stereo not drawn) + CN1CCN(c2cc(C(=O)Nc3cc4cc(-c5cnn(C)c5)ccc4cn3)ccn2)CC1', '616215-338-R-J1-PDC complex spheroids, viability % test/control', 'active'),
  ('COC1C=CCC(C)C(C)S(=O)(=O)NC(=O)c2ccc3c(c2)N(CC2CCC21)CC1(CCCc2cc(Cl)ccc21)CO3 (stereo not drawn) + CN1CCN(c2cc(C(=O)Nc3cc4cc(-c5cnn(C)c5)ccc4cn3)ccn2)CC1', '616215-338-R-J1-PDC complex spheroids, viability % test/control', 'active'),
  ('COc1cccc2c1C(=O)c1c(O)c3c(c(O)c1C2=O)CC(O)(C(=O)CO)CC3OC1CC(N)C(O)C(C)O1 (stereo not drawn) + CNC(=O)c1ccc(Nc2nc(OC3CCCC3)c3c(-c4ccc5nc(C)oc5c4)c[nH]c3n2)c(OC)c1', '616215-338-R-J1-PDC complex spheroids, viability % test/control', 'inactive');
